Source of measurements: paper PMC7946963

Experimental System: T1, FIP200 Claw domain (residues 1490–1594) (human, UniProt Q8TDY2 1490-1594)
T1 construct: 15N-labelled in the NMR titrations; also called RB1CC1; source: E. coli BL21 (DE3), purified (Ni-NTA, size-exclusion chromatography); not shown: Trx (inferred from the cleaved 3C protease site), N-terminal, cleaved; His6, N-terminal, cleaved
T1 sequence (Q8TDY2 1490-1594): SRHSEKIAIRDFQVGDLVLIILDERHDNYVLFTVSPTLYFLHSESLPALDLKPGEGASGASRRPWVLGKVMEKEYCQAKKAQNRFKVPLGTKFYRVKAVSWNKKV
Experiment Description: fluorescence polarisation; FITC-labeled peptide (~0.25 μM) titrated with increasing amounts of protein; 20 mM Tris pH 7.9, 100 mM NaCl, 1 mM DTT, 25 °C; one-site binding model
Test Conditions: both partners purified
pKd: −log10 of the molar value. Square brackets hold non-standard residues; d marks the D form. Ends that are not written are not given here. * marks the point of attachment. FITC = O=C1OC2(c3ccc(O)cc3Oc3cc(O)ccc32)c2ccc(NC(=S)*)cc21; pS = N[C@@H](COP(=O)(O)O)C(=O)O
Each record here notes measured pKd.
Quantity Kind: pKd

Binder	Quantity Kind	Result
{FITC}-SSEDSFVEIRMAE (Optineurin, human, LIR region; also called un-phosphorylated Optineurin LIR peptide; source: synthetic peptide, bought: ChinaPeptides (>98% pure)) [Optineurin LIR synthetic peptide (un-phosphorylated)]	pKd	~3.51
SSED[pS]FVEIRMAE (also: N-terminal FITC in fluorescence polarisation assay only, source: synthetic peptide, bought: ChinaPeptides (>98% pure)) [S177-phosphorylated Optineurin LIR synthetic peptide (p-Optineurin LIR)]	pKd	~4.92
